Origin of measurements: patent US20240400654A1

Molecular target: HRgpA-6H (Porphyromonas gingivalis) (UniProt P28784)
Assay: ELISA, coated HRgpA-6H
# Ratio OD(Variant)/OD(WT) values compiled below
Measure: Ratio OD(Variant)/OD(WT)

INSERT INTO assay_data (binder, measure, data_value) VALUES
  ('KB001 mouse Fab VL S30F (Fab, V domains shown) VH: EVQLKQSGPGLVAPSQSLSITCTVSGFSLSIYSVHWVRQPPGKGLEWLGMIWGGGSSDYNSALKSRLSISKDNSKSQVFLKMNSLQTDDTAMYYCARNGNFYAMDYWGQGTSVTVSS VL: QIVLTQSPAIMSASLGERVTMTCTASSSVFSSFLHWYQQKPGSSPQLWIYSTSNLASGVPARFSGSGSGTSYSLTISSMEAEDAATYYCHQYHHSPYIYTFGGGTKLEIK', 'Ratio OD(Variant)/OD(WT)', 1.06),
  ('KB001 mouse Fab VH I31N (Fab, V domains shown) VH: EVQLKQSGPGLVAPSQSLSITCTVSGFSLSNYSVHWVRQPPGKGLEWLGMIWGGGSSDYNSALKSRLSISKDNSKSQVFLKMNSLQTDDTAMYYCARNGNFYAMDYWGQGTSVTVSS VL: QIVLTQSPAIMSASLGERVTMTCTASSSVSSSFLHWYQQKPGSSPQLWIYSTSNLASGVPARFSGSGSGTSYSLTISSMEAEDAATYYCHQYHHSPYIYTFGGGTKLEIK', 'Ratio OD(Variant)/OD(WT)', 0.85),
  ('KB001 mouse Fab VL S57R (Fab, V domains shown) VH: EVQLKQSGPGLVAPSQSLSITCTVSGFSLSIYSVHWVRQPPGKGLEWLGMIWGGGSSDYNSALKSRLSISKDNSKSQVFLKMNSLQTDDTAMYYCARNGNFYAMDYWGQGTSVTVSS VL: QIVLTQSPAIMSASLGERVTMTCTASSSVSSSFLHWYQQKPGSSPQLWIYSTSNLARGVPARFSGSGSGTSYSLTISSMEAEDAATYYCHQYHHSPYIYTFGGGTKLEIK', 'Ratio OD(Variant)/OD(WT)', 1.04);
